system: UACC-257 melanoma; assay: NCI tumour cell line growth inhibition, 48 h
For each record, write down the corresponding TGI.

Report TGI for each item below.
1. COc1cccc2c1C(=O)c1c(O)c3c(c(O)c1C2=O)C[C@H](O)C[C@@H]3OC1CC(N)C(O)C(C)O1 (some centres undefined)
2. c1ccc2c(c1)Sc1nccc3ccnc-2c13
3. Cc1ccc2nc(-c3ccc(N(C)C)c(Br)c3)cn2c1

5.15 µM
> 100 µM
> 100 µM

###

system: HOP-62 NSCLC; experiment: NCI tumour cell line growth inhibition, 48 h
measurementKind: TGI

The examples below pair each entry with its known result.
compound | measurementKind | result
Cc1cccc(C)c1NC(=O)C1C(=O)N(c2c(C)cccc2C)C(=O)/C1=N\NC(N)=S (stereo unspecified) | TGI | > 100 µM
Fc1cc2[nH]ncc2c2c3c(c(-c4cn[nH]c4C(F)(F)F)nc12)C1CCC3C1 (stereo unspecified) | TGI | 3.75 µM
Cc1cc2c(cc1C)N(C(=O)CCl)CCN2C(=O)CCl | TGI | 3.37 µM
O=C1C=CC(=O)N1n1c(-c2ccccc2)n[nH]c1=O | TGI | > 100 µM

Report TGI for each item below.
1. CCN(CC)C(=S)Oc1cc2oc(=O)cc(C)c2cc1Cl
2. N#CC1(O)CCCCCCCCCCC1
3. CSc1nc(NC(C)C)c2c(n1)Sc1nc3ccccc3n1N=C2

1. > 100 µM
2. > 100 µM
3. 22.2 µM

###

For each record, write down the corresponding TGI.
test system: RXF 393 renal; experiment: NCI tumour cell line growth inhibition, 48 h
Answers are plain numbers, in µM.

compound | outputUnit | TGI
Cc1ccc(-c2cc(-c3ccco3)c(C#N)c(=O)n2C2OC(OC(=O)c3ccccc3)C(OC(=O)c3ccccc3)C2OC(=O)c2ccccc2)cc1 (centres undefined) | µM | 88.4

Report TGI for each item below.
1. O=[N+]([O-])c1ccc(NC(=S)N=Nc2c(O)[nH]c3ccc([N+](=O)[O-])cc23)cc1
2. COc1cc(-c2cn(-c3ccc(Cl)c(Cl)c3)c(=O)n2C(C)=O)cc(OC)c1OC
3. CN(C)CCCNC(=O)c1cc(NC(=O)c2cc(NC(=O)CCCn3c4ccccc4c4ccccc43)cn2C)cn1C

[37.1, 14.9, 37.8]

###

tested on: SF-539 CNS; test: NCI tumour cell line growth inhibition, 48 h; in the data active means GI50 below about 0.43 µM; inactive means the rest
Field 'call' accepts yes (1) (active), no (0) (inactive)

Study these solved cases before continuing.
molecule | classification
COc1ccccc1/C=C/C(=O)c1ccccc1 | no (0)
COc1cc(/C=C2\C(=O)Nc3ccc(N(C)C)cc32)cc(OC)c1OC | no (0)
CC[C@H](Nc1nc(C)nc(N)c1C#N)c1nc2cccc(NCc3ccc(C(=O)NO)cc3)c2c(=O)n1-c1ccccc1 | no (0)
Cc1nc2sccn2c1-c1csc(Nc2cccc(Cl)c2C)n1 | no (0)
Nc1ccccc1C#C/C=C\C#Cc1ccccc1 | no (0)

How was COc1ccc(Cn2c3c(cc(OS(=O)(=O)C(F)(F)F)c2=O)Cc2ccccc2-3)cc1 classified in this test?
no (0)

How was COc1cc(C(=O)Nc2cc3c(cc2Oc2cc(C)cc(C)c2)C(=O)N(C)[C@@H](CC(=O)N(C)O)C(=O)N3)c(Br)c(OC)c1OC classified in this test?
yes (1)

How was Cc1cc(Cl)ccc1Nc1nc(C(F)(F)F)ccc1C(=O)N/N=C/c1ccc([N+](=O)[O-])cc1 classified in this test?
no (0)

How was COc1ccc(Cn2cc3c(c2)-c2oncc2CC3)cc1 classified in this test?
no (0)

How was CCc1c(CNc2ccc(C(=O)NC(CC(=O)O)C(=O)O)cc2)ccc2nc(N)nc(N)c12 (stereo not given) classified in this test?
yes (1)
